Field: inhibition at 10 µM. Provide a value for each of the compounds that follow.
- Target Entity: D2S dopamine receptor (D2S) (Homo sapiens, UniProt P14416)
- Construct: expressed in transfected cells; host or cells: HEK-293 cells (membrane fractions)
- Sequence (P14416 1-414 isoform P14416-2): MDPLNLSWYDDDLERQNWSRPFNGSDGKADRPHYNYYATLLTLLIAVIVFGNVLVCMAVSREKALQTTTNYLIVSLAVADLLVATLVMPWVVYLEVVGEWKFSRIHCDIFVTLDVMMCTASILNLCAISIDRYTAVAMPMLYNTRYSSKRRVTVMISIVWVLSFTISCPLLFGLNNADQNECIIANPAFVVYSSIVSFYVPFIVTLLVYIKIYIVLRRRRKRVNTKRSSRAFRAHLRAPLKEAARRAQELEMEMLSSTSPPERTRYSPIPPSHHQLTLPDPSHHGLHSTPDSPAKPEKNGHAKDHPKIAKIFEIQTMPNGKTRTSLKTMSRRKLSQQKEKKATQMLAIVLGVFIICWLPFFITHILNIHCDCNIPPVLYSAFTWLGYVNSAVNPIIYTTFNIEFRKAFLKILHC
- Assay Notes: Competitive radioligand binding assay, D2S (agonist radioligand)
- Test Conditions: D2S; compound at 10 μM; mean; read-out: % inhibition of control specific binding, Mean
Counter-ions that a name gives are not always drawn.
Reply with just the number (in %).

[in] Consider the compound NC(=S)OC[C@H](N)Cc1ccccc1 [Compound 8, dihydrochloride] and give its recorded inhibition at 10 µM.
[out] 27.4

[in] Consider the compound N[C@@H](COS(N)(=O)=O)Cc1ccccc1 [Compound 9, hydrochloride] and give its recorded inhibition at 10 µM.
[out] 39.5

[in] Consider the compound NC(=O)OC[C@H](N)Cc1ccccc1 [APC, (R)-2-amino-3-phenylpropyl carbamate, reference compound] and give its recorded inhibition at 10 µM.
[out] 4.4

[in] Consider the compound NC(=O)SC[C@H](N)Cc1ccccc1 [Compound 10, hydrochloride] and give its recorded inhibition at 10 µM.
[out] 90

[in] Consider the compound NC(=O)CC[C@H](N)Cc1ccccc1 [Compound 4, hydrochloride] and give its recorded inhibition at 10 µM.
[out] -6

[in] Consider the compound NC(=O)NC[C@H](N)Cc1ccccc1 [Compound 3, hydrochloride] and give its recorded inhibition at 10 µM.
[out] -0.7

---

- Target Entity: norepinephrine transporter (NET) (Homo sapiens)
- Construct: expressed in transfected cells; host or cells: CHO cells (membrane fractions)
- Sequence (P23975 whole entry): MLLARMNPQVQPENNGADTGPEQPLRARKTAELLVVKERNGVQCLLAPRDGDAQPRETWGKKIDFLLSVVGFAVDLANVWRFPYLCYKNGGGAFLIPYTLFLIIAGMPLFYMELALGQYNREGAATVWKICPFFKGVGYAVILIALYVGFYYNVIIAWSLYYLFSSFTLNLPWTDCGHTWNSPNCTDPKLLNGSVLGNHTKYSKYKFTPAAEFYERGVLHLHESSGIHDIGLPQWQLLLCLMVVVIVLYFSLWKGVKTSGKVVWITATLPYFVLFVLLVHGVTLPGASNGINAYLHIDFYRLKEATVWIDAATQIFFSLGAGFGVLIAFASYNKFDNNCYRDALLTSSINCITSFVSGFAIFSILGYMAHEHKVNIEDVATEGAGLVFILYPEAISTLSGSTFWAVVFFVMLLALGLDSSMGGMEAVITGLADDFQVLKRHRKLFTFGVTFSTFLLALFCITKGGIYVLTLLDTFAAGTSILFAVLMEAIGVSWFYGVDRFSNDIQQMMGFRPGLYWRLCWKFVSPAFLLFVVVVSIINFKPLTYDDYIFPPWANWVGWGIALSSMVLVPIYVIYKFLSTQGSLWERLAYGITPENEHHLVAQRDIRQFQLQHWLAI
- Assay Notes: Competitive radioligand binding assay, norepinephrine transporter (antagonist radioligand)
- Test Conditions: Norepinephrine transporter; compound at 10 μM; mean; read-out: % inhibition of control specific binding, Mean
Structures can show the parent of a compound that is named as a salt.
Measurement Name: inhibition at 10 µM (%)
Reply with just the number (in %).

[in] Consider the compound NC(=O)OC[C@H](N)Cc1ccccc1 [APC, (R)-2-amino-3-phenylpropyl carbamate, reference compound] and give its recorded inhibition at 10 µM.
[out] 11.4

[in] Consider the compound N[C@@H](COS(N)(=O)=O)Cc1ccccc1 [Compound 9, hydrochloride] and give its recorded inhibition at 10 µM.
[out] 5.1

[in] Consider the compound NC(=O)SC[C@H](N)Cc1ccccc1 [Compound 10, hydrochloride] and give its recorded inhibition at 10 µM.
[out] 91.7

[in] Consider the compound NC(=O)CC[C@H](N)Cc1ccccc1 [Compound 4, hydrochloride] and give its recorded inhibition at 10 µM.
[out] -7.5

[in] Consider the compound NC(=S)OC[C@H](N)Cc1ccccc1 [Compound 8, dihydrochloride] and give its recorded inhibition at 10 µM.
[out] 37.8

[in] Consider the compound NC(=O)NC[C@H](N)Cc1ccccc1 [Compound 3, hydrochloride] and give its recorded inhibition at 10 µM.
[out] 32.8

---

- Target Entity: serotonin (5-HT) transporter (SERT) (Homo sapiens, UniProt P31645)
- Construct: expressed in transfected cells; host or cells: CHO cells (membrane fractions)
- Sequence (P31645 whole entry): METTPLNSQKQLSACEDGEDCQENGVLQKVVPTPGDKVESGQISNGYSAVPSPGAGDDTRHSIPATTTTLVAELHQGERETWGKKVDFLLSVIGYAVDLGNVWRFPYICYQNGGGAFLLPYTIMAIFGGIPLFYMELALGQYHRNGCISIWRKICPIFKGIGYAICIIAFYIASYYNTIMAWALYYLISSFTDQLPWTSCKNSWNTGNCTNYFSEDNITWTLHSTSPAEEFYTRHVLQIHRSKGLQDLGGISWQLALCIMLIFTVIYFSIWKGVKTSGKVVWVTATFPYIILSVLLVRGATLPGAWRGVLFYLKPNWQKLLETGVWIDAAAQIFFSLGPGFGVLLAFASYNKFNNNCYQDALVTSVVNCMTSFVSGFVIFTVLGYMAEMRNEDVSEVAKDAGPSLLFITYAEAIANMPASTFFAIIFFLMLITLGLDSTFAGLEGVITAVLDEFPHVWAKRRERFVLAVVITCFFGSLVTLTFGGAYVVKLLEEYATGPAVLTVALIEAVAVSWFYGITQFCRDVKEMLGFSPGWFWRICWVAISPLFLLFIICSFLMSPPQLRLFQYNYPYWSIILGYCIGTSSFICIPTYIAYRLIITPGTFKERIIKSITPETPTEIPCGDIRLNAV
- Assay Notes: Competitive radioligand binding assay, 5-HT transporter (antagonist radioligand)
- Test Conditions: 5-HT transporter; compound at 10 μM; mean; read-out: % inhibition of control specific binding, Mean
- Protocol: Compounds of the invention were tested for pharmacological activity in comparison to APC. Eight binding assays were carried out to provide a binding profile for each compound, including binding to dopamine transporter (DAT), norepinephrine transporter (NET), serotonin (5-HT) transporter (SERT), alpha2A adrenergic receptor (Alpha2A), alpha2C adrenergic receptor (Alpha2C), D2S dopamine receptor (D2S), D2L dopamine receptor (D2L), and vesicular monoamine transporter (VMAT2). […]
Structures can show the parent of a compound that is named as a salt.
Field: inhibition at 10 µM. Provide a value for each of the compounds that follow.
Reply with just the number (in %).

[in] Consider the compound NC(=O)SC[C@H](N)Cc1ccccc1 [Compound 10, hydrochloride] and give its recorded inhibition at 10 µM.
[out] 21.9

[in] Consider the compound NC(=S)OC[C@H](N)Cc1ccccc1 [Compound 8, dihydrochloride] and give its recorded inhibition at 10 µM.
[out] -2.1

[in] Consider the compound NC(=O)CC[C@H](N)Cc1ccccc1 [Compound 4, hydrochloride] and give its recorded inhibition at 10 µM.
[out] -0.5

[in] Consider the compound NC(=O)NC[C@H](N)Cc1ccccc1 [Compound 3, hydrochloride] and give its recorded inhibition at 10 µM.
[out] -1.4

[in] Consider the compound NC(=O)OC[C@H](N)Cc1ccccc1 [APC, (R)-2-amino-3-phenylpropyl carbamate, reference compound] and give its recorded inhibition at 10 µM.
[out] -4.8

[in] Consider the compound N[C@@H](COS(N)(=O)=O)Cc1ccccc1 [Compound 9, hydrochloride] and give its recorded inhibition at 10 µM.
[out] -2.7
